experiment: Inhibition of human CXCR3 by chemotaxis assay
parameter.measured: pIC50
# pIC50 is unitless: minus log10 of the molar concentration; print number only

Prompt line: Tell me the measured pIC50 of C[C@H]1CN(c2ncc(C(=O)NCc3ccc(F)c(F)c3)cc2Cl)CCN1C1CCN(Cc2ccc(Cl)cc2)CC1 , please.
Response line: 7.64
